What IC50 was measured for each of the following?
Target: Disintegrin and metalloproteinase domain-containing protein 17 (Homo sapiens)
Sequence (P78536 whole entry, the tested form may be a part): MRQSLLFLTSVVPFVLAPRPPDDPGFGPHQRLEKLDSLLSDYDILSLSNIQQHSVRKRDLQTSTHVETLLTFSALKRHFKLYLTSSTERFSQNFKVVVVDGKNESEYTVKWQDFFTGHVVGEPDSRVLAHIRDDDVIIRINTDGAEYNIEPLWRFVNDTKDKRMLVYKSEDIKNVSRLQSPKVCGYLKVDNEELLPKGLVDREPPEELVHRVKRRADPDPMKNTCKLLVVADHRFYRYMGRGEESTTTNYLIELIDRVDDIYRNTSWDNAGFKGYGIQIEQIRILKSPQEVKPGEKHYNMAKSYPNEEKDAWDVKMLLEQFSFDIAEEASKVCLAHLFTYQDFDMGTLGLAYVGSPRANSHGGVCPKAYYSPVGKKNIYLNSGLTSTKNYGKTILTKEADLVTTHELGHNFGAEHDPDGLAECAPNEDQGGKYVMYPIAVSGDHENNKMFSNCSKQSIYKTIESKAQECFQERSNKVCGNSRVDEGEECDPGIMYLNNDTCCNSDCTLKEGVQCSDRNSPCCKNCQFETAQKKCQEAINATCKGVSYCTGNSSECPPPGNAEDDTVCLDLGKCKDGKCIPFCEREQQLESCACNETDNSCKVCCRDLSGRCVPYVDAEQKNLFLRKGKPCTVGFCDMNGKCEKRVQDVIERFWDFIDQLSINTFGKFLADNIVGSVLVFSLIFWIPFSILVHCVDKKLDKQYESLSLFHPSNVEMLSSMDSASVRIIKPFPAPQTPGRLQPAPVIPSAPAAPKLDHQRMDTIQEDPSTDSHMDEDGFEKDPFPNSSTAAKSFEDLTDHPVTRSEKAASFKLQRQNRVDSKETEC
Assay: Inhibition of TNF(tumor necrosis factor) in human blood
Format: functional
One number for each entry, in µM.

Record excerpt, results attached:
MOLECULE | MEASUREMENT TARGET | IC50 / µM
CNC(=O)[C@@H](NC(=O)[C@H](CC(C)C)[C@H](NS(=O)(=O)/C=C/c1ccccc1)C(=O)NO)C(C)(C)C | Disintegrin and metalloproteinase domain-containing protein 17 (Homo sapiens) | 0.77
CNC(=O)[C@@H](NC(=O)C(CC(C)C)C(OCc1cc2c(=O)[nH]c(C)nc2cc1Br)C(=O)NO)C(C)(C)C (single isomer, unassigned) | Disintegrin and metalloproteinase domain-containing protein 17 (Homo sapiens) | 4.3
CNC(=O)[C@@H](NC(=O)C(CC(C)C)C(C(=O)NO)N(C)S(=O)(=O)c1ccccc1)C(C)(C)C (single isomer, unassigned) | Disintegrin and metalloproteinase domain-containing protein 17 (Homo sapiens) | 3
CNC(=O)[C@@H](NC(=O)[C@H](CC(C)C)[C@H](Sc1ccc(C#N)cc1)C(=O)NO)C(C)(C)C | Disintegrin and metalloproteinase domain-containing protein 17 (Homo sapiens) | 3.3
CNC(=O)[C@@H](NC(=O)[C@H](CC(C)C)[C@H](NS(=O)(=O)c1ccc(C(=O)O)cc1)C(=O)NO)C(C)(C)C | Disintegrin and metalloproteinase domain-containing protein 17 (Homo sapiens) | 4.4

// returns reported IC50 for input CNC(=O)[C@@H](NC(=O)[C@H](CC(C)C)[C@H](NS(=O)(=O)c1cccc2cnccc12)C(=O)NO)C(C)(C)C
1.1

Where do these numbers come from? They come from ChEMBL document CHEMBL1132484.
